Assay: ATG_TAL_CIS: Attagene CIS-FACTORIAL HepG2 Assay for human TAL Basal Promoter (AID 2282966);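 further: background control endpoint measuring basal TAL promoter reporter mRNA not a specific factor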
Conditions: HepG2 Attagene cis-factorial TAL promoter reporter; actives raise or lower the signal
The source made the active and inactive calls. How the source made its calls: active means hit-call score of the fitted dose curve at least 0.9, where 1 is the maximum; inactive means score below 0.9.
Outcome codes: active, inactive

# MOLECULE, ASSIGNED_LABEL
measured = [
    ("CCOP(=S)(OCC)Oc1nc(Cl)c(Cl)cc1Cl", "inactive"),
    ("[O-][Cl+2]([O-])O", "inactive"),
    ("N#CCc1ccc(Cl)cc1", "inactive"),
    ("CC12CC1(C)C(=O)N(c1cc(Cl)cc(Cl)c1)C2=O (centres undefined)", "inactive"),
    ("CCC[CH2][Sn]([Cl])([Cl])[Cl]", "inactive"),
    ("C=C(C)C(=O)[O][Sn]([CH2]CCC)([CH2]CCC)[CH2]CCC", "inactive"),
    ("CC(C)(c1ccccc1)c1ccc(O)c(C(C)(C)c2ccccc2)c1", "inactive"),
    ("CCCCP(CCCC)CCCC", "inactive"),
    ("CCC[CH2][Sn]([CH2]CCC)([CH2]CCC)[O]C(=O)c1ccccc1", "inactive"),
    ("CCOP(OCC)OCC", "inactive"),
    ("CCc1ccccc1N", "inactive"),
    ("CCCCCCCCSC(=O)Oc1cc(Cl)nnc1-c1ccccc1", "active"),
    ("c1cc[c]([Hg][c]2ccccc2)cc1", "inactive"),
    ("Cn1sc(Cl)cc1=O", "inactive"),
]
